test: protein stability index of a GFP-peptide fusion (yeast GPS) (PSI 1-4); higher = more stable; sorted into four equal gates, so the index is relative within each strain; settings: san1∆
quantityMeasured: protein stability index

Worked cases, protein stability index given:
{"sequenceInput": "EKRATSPLLESDSIEKI [PUP2]", "protein stability index": 3.29}
{"sequenceInput": "PEYGRIIASASYDKTVK [YGL100W/SEH1]", "protein stability index": 3.03}

Could you now consider this next sequence?
Lookup: Please look up its protein stability index: LMTKLNSFKLFKAEKLQ [RPC17]
Found: 1.92

----------
assay: protein stability index of a GFP-peptide fusion (yeast GPS) (PSI 1-4); higher = more stable; sorted into four equal gates, so the index is relative within each strain; details: doa10∆
Entries annotated with measured protein stability index
I only need the number, thanks.

{"sequenceInput": "SFSLTTFSPSGKLGQID [PRE8]", "protein stability index": 3}
{"sequenceInput": "TCGSKGSTLNVSQMVAV [RPO31]", "protein stability index": 3.1}
{"sequenceInput": "DFREKALYIAMMTRRVV [RET1]", "protein stability index": 1.18}

Lookup: Please look up its protein stability index: LTSTKVKQLENVSSNIV [RPS20]
Found: 1.75

Lookup: Please look up its protein stability index: KSNSTGNISSSTVKKKD [REC8]
Found: 2.96

Lookup: Please look up its protein stability index: TTFTKVAAKWNTSLISL [PRP8]
Found: 2.09

Lookup: Please look up its protein stability index: QQQPQPQYNMNMGMNNM [PGD1]
Found: 3.02

Lookup: Please look up its protein stability index: ISLIPELSVVLSGIIQD [RRI2]
Found: 1.75

Lookup: Please look up its protein stability index: KTLVALEKQEDYIDNLV [RPC37]
Found: 3.23

Lookup: Please look up its protein stability index: LPNLGTPDDDEIDVENH [RPN8]
Found: 1.53

Lookup: Please look up its protein stability index: MSGSFWTSTQRHHWQYT [SSN8]
Found: 2.07

Lookup: Please look up its protein stability index: QLWLNSSGDFDDNNNNN [GRR1]
Found: 3.19

----------
Entries annotated with measured protein stability index
experiment: protein stability index of a GFP-peptide fusion (yeast GPS) (PSI 1-4); higher = more stable; sorted into four equal gates, so the index is relative within each strain; conditions: pdr5∆
I only need the number, thanks.

{"sequenceInput": "AQRLQISDYQQLESIYF [SWI1]", "protein stability index": 1.95}
{"sequenceInput": "FNIISMTLKEMYQMITM [SMC4]", "protein stability index": 1.97}

Could you now consider this next sequence?
Lookup: Please look up its protein stability index: DPQPFLKHVLQLIFRQQ [SNU114]
Found: 2.02

----------
assay: protein stability index of a GFP-peptide fusion (yeast GPS) (PSI 1-4); higher = more stable; sorted into four equal gates, so the index is relative within each strain; details: doa10∆
quantityMeasured: protein stability index
I only need the number, thanks.

{"sequenceInput": "KKRLMDIDDELNELETL [SMC2]", "protein stability index": 3.05}
{"sequenceInput": "SRFTNVSVIAPESQGQH [YMR153W/NUP53]", "protein stability index": 3}
{"sequenceInput": "SNEICDLAYQYVRALEL [SRB2]", "protein stability index": 2.92}
{"sequenceInput": "LNYTVINFKSREAIRPG [AAR2]", "protein stability index": 3.07}
{"sequenceInput": "PDPNFENSIGYNNRKCW [PRP8]", "protein stability index": 3.02}
{"sequenceInput": "NLLPKKSAKTAKASQEL [HTA2]", "protein stability index": 2.92}
{"sequenceInput": "NLQQDKTNFQDVILDYQ [REC8]", "protein stability index": 3.07}

Lookup: Please look up its protein stability index: DGHLQFLNDVIPTTKNL [DLS1]
Found: 2.96

----------
experiment: protein stability index of a GFP-peptide fusion (yeast GPS) (PSI 1-4); higher = more stable; sorted into four equal gates, so the index is relative within each strain; settings: pdr5∆
Entries annotated with measured protein stability index
I only need the number, thanks.

Worked cases, protein stability index given:
{"sequenceInput": "AKLIRSAIEHTTLKSVT [RPO21]", "protein stability index": 2.96}
{"sequenceInput": "ILEDDFAVALKNEPDYS [CDC53]", "protein stability index": 3.09}
{"sequenceInput": "EIEQPVTTFVFTGQGSQ [FAS1]", "protein stability index": 2.91}
{"sequenceInput": "GAVIQLLKSTGLHPFEV [RPB4]", "protein stability index": 3.19}

Lookup: Please look up its protein stability index: SLFTYFREAIVATEPLL [PRP8]
Found: 1.83

Lookup: Please look up its protein stability index: MKNKAETTTEEDSENPS [ITC1]
Found: 3.27

Lookup: Please look up its protein stability index: CKVVAEMIRGRSPEEIR [SKP1]
Found: 1.95

Lookup: Please look up its protein stability index: TESVPEPKLFRMRIFAS [RPL20A]
Found: 3.02

----------
assay: protein stability index of a GFP-peptide fusion (yeast GPS) (PSI 1-4); higher = more stable; sorted into four equal gates, so the index is relative within each strain; conditions: san1∆
Entries annotated with measured protein stability index
I only need the number, thanks.

Worked cases, protein stability index given:
{"sequenceInput": "AFLSKVPEFFQTANEKH [SRP14]", "quantityMeasured": "protein stability index", "observed": 3.37}
{"sequenceInput": "IEINEDNSQDDQDRGAA [RRI2]", "quantityMeasured": "protein stability index", "observed": 3.12}
{"sequenceInput": "ETVPDNVKTSVSQLYRI [RPO31]", "quantityMeasured": "protein stability index", "observed": 3.21}
{"sequenceInput": "PTLQVGDLVYARVCTAE [RRP40]", "quantityMeasured": "protein stability index", "observed": 1.42}
{"sequenceInput": "LQKEKELHKEGTISKLE [SMC2]", "quantityMeasured": "protein stability index", "observed": 1.83}

Lookup: Please look up its protein stability index: GYRSRTRYMFQRDFRKH [RPL21A]
Found: 3.16

Lookup: Please look up its protein stability index: KAANFIQNQSPQFNSPY [SWI1]
Found: 2.37

Lookup: Please look up its protein stability index: ETISAIEHPMTSAIEVL [RPN1]
Found: 1.76

----------
assay: protein stability index of a GFP-peptide fusion (yeast GPS) (PSI 1-4); higher = more stable; sorted into four equal gates, so the index is relative within each strain; conditions: san1∆
quantityMeasured: protein stability index
I only need the number, thanks.

Worked cases, protein stability index given:
{"sequenceInput": "LSPPEFLFHAISGREGL [RPO31]", "protein stability index": 1.48}
{"sequenceInput": "KVPDSTYDMVGGLTKQI [RPT6]", "protein stability index": 1.93}
{"sequenceInput": "EPNSAKKIRFLQLIIFL [RGR1]", "protein stability index": 2.89}
{"sequenceInput": "AKTELNEVSLAIKKSSM [SMC2]", "protein stability index": 3.04}

Lookup: Please look up its protein stability index: IAKSQDKKSCSVDDVLS [DPB4]
Found: 3.22

Lookup: Please look up its protein stability index: VGDIVDIKANGSIQKGM [RPL21A]
Found: 1.62

Lookup: Please look up its protein stability index: LHQHVVLKCLKSLESQR [RPC34]
Found: 2.41

Lookup: Please look up its protein stability index: GSQKTFEIDDEHRIRVF [RPS6A]
Found: 1.97

Lookup: Please look up its protein stability index: NQLTESASHFEQYTKKI [YJL041W/NSP1]
Found: 2.76

Lookup: Please look up its protein stability index: GMMSTTGTARLNSMPNN [YJL039C/NUP192]
Found: 3.1

----------
experiment: protein stability index of a GFP-peptide fusion (yeast GPS) (PSI 1-4); higher = more stable; sorted into four equal gates, so the index is relative within each strain; details: san1∆
Entries annotated with measured protein stability index

Worked cases, protein stability index given:
{"sequenceInput": "IQKQIETIQADLNHVTE [SMC2]", "protein stability index": 2.96}
{"sequenceInput": "ENDLSFALMRYYDRKEE [RRI2]", "protein stability index": 2.97}
{"sequenceInput": "QAQAQAQANNNNNGLPQ [GAL11]", "protein stability index": 2.95}
{"sequenceInput": "DADGDIDMGEDKENVPV [DPB4]", "protein stability index": 3.01}

Could you now consider this next sequence?
Lookup: Please look up its protein stability index: SFRIKQKMAKAKKQNRP [RPL39]
Found: 2.93

----------
assay: protein stability index of a GFP-peptide fusion (yeast GPS) (PSI 1-4); higher = more stable; sorted into four equal gates, so the index is relative within each strain; details: pdr5∆
quantityMeasured: protein stability index
I only need the number, thanks.

{"sequenceInput": "NKSTSSEAEYSKDIETL [YIL149C/MLP2]", "observed": 2.97}
{"sequenceInput": "RQSSDESDNYRLLPNGS [YML031W/NDC1]", "observed": 2.97}
{"sequenceInput": "KACKTADKLVNVTQNEQ [SRP68]", "observed": 3.04}

Lookup: Please look up its protein stability index: EKIKSKKINRRNETSVD [YCG1]
Found: 3.09

Lookup: Please look up its protein stability index: MKIQAGQLGLDDNDVPG [YLR018C/POM34]
Found: 3

Lookup: Please look up its protein stability index: KHISASIDNDFSEEKAE [YAR002W/NUP60]
Found: 3.02

Lookup: Please look up its protein stability index: SRNFSTRDEETTKLAFL [SIR4]
Found: 3.09
